Data origin: patent US20250223358A1

Molecular target: T1, human CD3 (human, UniProt P07766 23-207; P04234 22-171; P09693 23-182)
T1 construct: whole, on cells; also called hCD3; CD3 on Jurkat cells
T1 sequence (P07766 23-207, chain 1 of 3): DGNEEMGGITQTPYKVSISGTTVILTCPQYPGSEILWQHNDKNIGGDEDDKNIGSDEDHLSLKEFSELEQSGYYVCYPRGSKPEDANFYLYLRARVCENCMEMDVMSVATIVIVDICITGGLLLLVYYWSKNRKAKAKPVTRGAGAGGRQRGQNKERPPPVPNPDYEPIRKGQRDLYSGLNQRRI
T1 sequence (P04234 22-171, chain 2 of 3): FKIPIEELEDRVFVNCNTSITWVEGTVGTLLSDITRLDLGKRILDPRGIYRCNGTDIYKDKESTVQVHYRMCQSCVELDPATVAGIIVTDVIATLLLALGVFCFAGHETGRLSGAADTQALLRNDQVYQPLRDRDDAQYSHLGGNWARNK
T1 sequence (P09693 23-182, chain 3 of 3): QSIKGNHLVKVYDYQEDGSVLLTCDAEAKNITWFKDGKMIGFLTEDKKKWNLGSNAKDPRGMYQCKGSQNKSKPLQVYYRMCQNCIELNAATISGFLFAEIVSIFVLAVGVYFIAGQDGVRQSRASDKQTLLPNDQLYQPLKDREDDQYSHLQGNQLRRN
Test: FACS on Jurkat cells
Assign pEC50 to each entry below.
Answers are plain numbers, as −log10 of the molar value.

BINDER | ASSAY_RESULT
BMK-B219 (antibody, V domains shown, benchmark anti-CD3 antibody; also called anti-CD3 antibody developed by JNJ (Johnson & Johnson)) VH: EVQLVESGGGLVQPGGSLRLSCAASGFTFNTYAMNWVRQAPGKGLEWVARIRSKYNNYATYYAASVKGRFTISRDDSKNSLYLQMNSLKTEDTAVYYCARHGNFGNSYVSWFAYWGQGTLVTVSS VL: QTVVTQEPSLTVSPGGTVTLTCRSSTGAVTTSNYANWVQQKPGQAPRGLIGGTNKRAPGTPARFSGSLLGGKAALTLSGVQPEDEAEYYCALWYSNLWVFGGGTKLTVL | 8.83
ch126A11A4 (antibody, V domains shown) VH: QVQLQQPGTELVKPGASVKLSCKASGYTFTSYWMHWVKQRPEQGLEWIGNINPSNGDTNYNEKFKSKATLTVDKASNTAYMQLSSLTSEDSAVYYCGRDRSSQYYFDYWGQGTTLTVSS VL: DIVMSQSPSSLAVSAGEKVTMSCKSSQSLLNSRTRKNYLAWYQQKPGQSPKLLIYWASTRESGVPDRFTGSGSGTDFTLTISSVQAEDLAVYFCKQSFILRTFGGGTKLEIK | 9.25
ch147E11E2 (antibody, V domains shown) VH: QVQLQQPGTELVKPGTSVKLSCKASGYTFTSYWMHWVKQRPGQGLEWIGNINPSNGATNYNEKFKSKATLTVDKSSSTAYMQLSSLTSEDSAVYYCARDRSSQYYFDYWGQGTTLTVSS VL: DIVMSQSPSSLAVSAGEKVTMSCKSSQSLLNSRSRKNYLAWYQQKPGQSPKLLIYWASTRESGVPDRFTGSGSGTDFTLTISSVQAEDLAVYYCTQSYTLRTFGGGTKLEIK | 9.38

Now take the following binder into account.
Ask: Fill in the blank: the reported pEC50 of ch147C6F3 (antibody, V domains shown) VH: QVQLQQPGTELVKPGASVKLSCKASGYTFDSYWMHWVKQRPGQGLEWIGNLNPSNGEINYNEKFKHKATLTVDKSSSTAYMQLSSLTSEDSAVYYCSRDRSSQYYFDYWGQGTTLTVSS VL: DIVMSQSPSSLAVSAGEKVTLSCKSSQSLLNSRTRKNYLAWYQQKSGQSPKLLMYWASTRESGVPDRFTGSGSGTDFTLTITNVQAEDLAVYYCKQSYILRTFGGGTKLEIK is ____.
Result: 8.75
